measurement_description: protease stability score; higher = more stable; yeast display proteolysis, trypsin and chymotrypsin;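 further: relative to predicted unfolded state with 0 unfolded-like and 1 meaning tenfold more protease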
# maps each entry to its protease stability score
measurement_name: protease stability score

sequence_code=RETEEEIRHAHELLLEAEQTGDEHILHHMLDPNVRFQVGDKHIHGRENFMKQFRKLWEDFGVDHIEIRLKEMRVFENRVHVRGELIIRVGDKEMRTKHIEVSEKIDGKWLLHSVKFE measurement_name="protease stability score" measured_value=1.14
sequence_code=HEEEKHREDFVRTWLHNLITGNFEHHRHLADPRVRIRIIVDGREQRIHGREEMIRWFREWMELFPGYYRHIEHSDIIGEYVHIEGQLEVNGKRLDVHIHLEVINGKIKHLTIDSR measurement_name="protease stability score" measured_value=1.09
sequence_code=DDLEEEVEHFFELFWDDLLTGDEHSLTRQLDPHARFEYGDKVWHGREVYRQFMTQADHRHVEIKHTRVVNGRVEMNIEVRLHINGRRIESTVHIISTKINGQWRLESQHVE measurement_name="protease stability score" measured_value=-0.081

* * *

# maps each entry to its protease stability score
measurement_description: protease stability score; higher = more stable; yeast display proteolysis, trypsin and chymotrypsin;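 further: relative to predicted unfolded state with 0 unfolded-like and 1 meaning tenfold more protease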
measurement_name: protease stability score

sequence_code=DEEEENMRIAFKLLIEMHRTGDPEEHLELFDPHVRSIIGDKEYHGWEEYMRWIQHARVKELKLDSHRVYNGRVELDVRINVDVNGREIDREVHIIAEKVNGRWHFKSVRVL measured_value=1.41
sequence_code=DENRELMERIARLVLHWLHTGDEHFIERLVDPHARVQQGDKEDHGMDRVVEMWNELRVHHVELRHLEVFENHATIHGEIDGEINGQRVRLDFHIHIHIVDGRMETIHVHFR measured_value=2.1
sequence_code=SEDQREIKDFFKILSKALTTGDEEITSAMMDPHVRMDYNGKEHHGRDFLTELMKRADHWEHRLEVRSVRIIGDKVDVEGHMILHILIGDKEIRVRVDLDIELWKVDGRWIVKEITIK measured_value=1.04
sequence_code=DESEESSKEAWRLLLEMWKTGDEDEYSRMIDPNVRIEIGDKHFHGMEHASKRLQTFLKKLGFKHFRMILRDKDSQGNKIEIDLQIDIHQGDYHIHRRVTLILVKVDGKWSVESHHVI measured_value=1.68
sequence_code=HEDRKLEREIAEEMVKLWLTGDETRFEQLADPHVRVEDGDKESHGRENFSKLVRHRKTEFGIDHIEVEDIRVYDGRVEIRVRMEIGEKETHVRIIQVVINGRLKSVHLHFR measured_value=0.771
sequence_code=DEDTKLSKDAIRTFLESMVTGDEHILHRLADPNVKYSQGDKEYHGWEYAREFWSRVKNIRFHLKHYEVYGNKVHIEGELHVDGRHFEVHIVIIKFDGRWKIESHEIK measured_value=1.19
sequence_code=DEDEEELEKMLHKMLESLRTGDWKDITENLDPHTRFNINGVDFHGRELAHEVLHEWFERYKNIRIFLNTSRTINGRVELILRIEIGDKEEEMRILVIKVDGRWFMDTVDVRTR measured_value=2.13
sequence_code=RDTEETVENASKRWVRTMETGDEDVLHRLLDPHVRVEAENHEIHGREIVSTHIREILEKLGMTIHIHLKDVRVQGNKAEIDMHIEYIIDGRITSHDYTLINRKINGRWLVERVIIN measured_value=0.31
sequence_code=GEKEELSRLALHLWFRDYHTGDEDSAHRLLDPNVRLHVGDKHFVGRERFTRFWHEVYRELRIDDYILHSEDIQGDKIHMDGRIDGVVGDKREDFRTEIHLIWIDGKLHSEKRDKE measured_value=0.902
sequence_code=DELEDLAQKTHELFVQHYRTGDEDHLRHLLDPNAIMEIGDYHFIGREEILKFLVHWRIHRSEIKHLHVQGDKAEQEVEVDIEIGDKRFRTETHSIWIKINGKWFMHDFTVK measured_value=2.17
sequence_code=DESEKSAFRFFEEMTKVLSTGDEETFLKMLDPNTRLEVGDKERHGREDFIRLMRHLWEVLGADHVHIHVKDIKVVNGRADIDTDLIIYVNGKTIHRDTQIIVLKIDGRWVLTSMEVE measured_value=2.02
